Target: Heat shock protein HSP 90-alpha (Homo sapiens, UniProt P07900)
Assay: Inhibition of His-tagged N-terminal recombinant HSP90alpha (unknown origin) expressed in Escherichia coli BL21 (DE3) incubated for 4 hrs by fluorescence polarization based microplate reader assay
experimental readout: IC50

Some entries whose results are on file:
input smiles | value reported
CCN(Cc1ccc(C(=O)NO)cc1)C(=O)c1cc(Cl)c(O)cc1O | 693 nM
CCCCN(Cc1ccc(C(=O)NO)cc1)C(=O)c1cc(C(C)C)c(O)cc1O | 367 nM
CCCN(Cc1ccc(C(=O)NO)cc1)C(=O)c1cc(C(C)C)c(O)cc1O | 648 nM
CCCN(Cc1ccc(C(=O)NO)cc1)C(=O)c1cc(Cl)c(O)cc1O | > 1000 nM

[Q] Dear colleague, I am looking for the recorded IC50 of the following compound: `CCN(Cc1ccc(C(=O)NO)cc1)C(=O)c1cc(C(C)C)c(O)cc1O`
[A] 220 nM

[Q] Dear colleague, I am looking for the recorded IC50 of the following compound: `CN(Cc1ccc(C(=O)NO)cc1)C(=O)c1cc(Cl)c(O)cc1O`
[A] 608 nM

[Q] Dear colleague, I am looking for the recorded IC50 of the following compound: `CCCCN(Cc1ccc(C(=O)NO)cc1)C(=O)c1cc(Cl)c(O)cc1O`
[A] 632 nM

[Q] Dear colleague, I am looking for the recorded IC50 of the following compound: `CN(Cc1ccc(C(=O)NO)cc1)C(=O)c1ccccc1`
[A] > 1000 nM

###

Target: Histone deacetylase 7 (Homo sapiens, UniProt Q8WUI4)
Sequence (Q8WUI4 whole entry): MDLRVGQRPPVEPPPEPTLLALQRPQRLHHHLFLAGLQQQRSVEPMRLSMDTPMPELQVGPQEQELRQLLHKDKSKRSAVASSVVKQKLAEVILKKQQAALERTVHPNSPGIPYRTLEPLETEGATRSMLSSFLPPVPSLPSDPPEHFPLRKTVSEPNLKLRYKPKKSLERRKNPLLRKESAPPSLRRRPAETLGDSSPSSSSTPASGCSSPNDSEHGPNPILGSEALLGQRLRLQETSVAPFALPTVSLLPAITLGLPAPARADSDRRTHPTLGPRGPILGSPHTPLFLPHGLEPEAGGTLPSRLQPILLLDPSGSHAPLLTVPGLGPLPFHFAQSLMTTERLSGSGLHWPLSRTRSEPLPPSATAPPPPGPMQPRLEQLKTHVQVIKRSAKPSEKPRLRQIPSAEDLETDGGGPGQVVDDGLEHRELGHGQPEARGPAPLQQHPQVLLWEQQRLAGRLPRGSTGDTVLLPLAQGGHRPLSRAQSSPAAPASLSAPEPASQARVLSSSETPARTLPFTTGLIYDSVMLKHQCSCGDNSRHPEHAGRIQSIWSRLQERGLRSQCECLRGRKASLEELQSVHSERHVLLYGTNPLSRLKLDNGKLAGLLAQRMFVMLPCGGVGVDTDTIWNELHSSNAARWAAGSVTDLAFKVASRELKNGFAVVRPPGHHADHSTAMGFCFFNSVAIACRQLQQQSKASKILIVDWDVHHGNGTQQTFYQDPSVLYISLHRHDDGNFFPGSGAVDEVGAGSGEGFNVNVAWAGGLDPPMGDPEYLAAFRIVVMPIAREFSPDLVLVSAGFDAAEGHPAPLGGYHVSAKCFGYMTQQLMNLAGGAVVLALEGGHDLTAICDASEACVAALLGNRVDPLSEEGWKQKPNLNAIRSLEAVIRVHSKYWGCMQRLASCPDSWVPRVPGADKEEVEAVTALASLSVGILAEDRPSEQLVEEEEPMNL
experimental readout: pIC50
# pIC50 = -log10(concentration in molar units)

[Q] Dear colleague, I am looking for the recorded pIC50 of the following molecule: `CC(C)c1cc(C(=O)N(C)Cc2ccc(C(=O)NO)cc2)c(O)cc1O`
[A] 5.77
